B1: tRNA (parent)
chain: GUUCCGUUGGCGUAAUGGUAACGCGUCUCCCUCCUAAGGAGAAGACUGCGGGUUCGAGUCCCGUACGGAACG

variants of: B1; assay: yeast fitness relative to wild type (ratio to wild type); higher = fitter; tRNA-Arg(CCU), competitive growth, 37 C, YPD
Fewer inactive variants are shown than the library holds.
QUANTITY_NAME: yeast fitness

// for each variant in input: emit yeast fitness
1. GUUCCGUUGGCGUAACGGUAACGCGUCUCCAUCCUAAGGAGUAGACUGCGGGUUCGAGUCCGGUACGGACCG
2. GUUCCGUUGGCGUAAUGGUAACGCGUCGCCCUCCUAAGGAGAAGAUUGCGGGUUCGAGUACCGUUCGGUACG
3. GUUCCGUUGGCGUAAUGGUAACGCGUCCCCCUCCUAAGGAGAAGACAGUGGGUUCGAGUCCCCUACGGAACG
4. GUUUCGUCGGCGUAAUCGUAACGCGUCUCCCUCCUAAGGAGAAGACUGAGGGUUCGAGUCCCGUACGGAACG
5. GUUCCGCUGGAGUAAUGGUAACGCGUCUCGCUCCUAAGGAGAAGACUGCGGGUUCGAGUCCCGUAUGGUACG
6. GUUACGUUGGCGUAAUGGUAACGCGUCUGCCUCCUACGGAGAAGACUGCGGGUACGAGUCCCGUACGGAACG
7. GUUCUGUUGGCGUAAUGGUAACGCGUCUCCCUCCUAAGAAGAAGACUGCGGGAUCGAGUCCCGUACGGAACG
8. GUUCCGUUCGCGUAAUGGUAACGCGUCUCCCUCCUAAGGAGAACACUGCGGGUUCGAGUCCCGUACGGAACG

1: ≤ 0.5; 2: ≤ 0.5; 3: 0.683; 4: ≤ 0.5; 5: ≤ 0.5; 6: ≤ 0.5; 7: ≤ 0.5; 8: 0.65
